# Method Description: qHTS Assay for Modulators of miRNAs and/or Inhibitors of miR-21; further: potency means the concentration at half of the fitted maximal effect; nearly all actives have a fitted effect of over 55% in size
# Run Conditions: HeLa miR-21-FLuc reporter, luciferase luminescence, 48 h; actives lower the signal
The campaign covered roughly 340,000 compounds. About 3,300 (0.97%) were called active. Another 9% or so got no clear call; they are omitted. The list shows a part of the results.
Assignment: determine reported Potency for the given compounds.

Q: What value of Potency has been recorded for this entry: "O=C(Nc1ccn(-c2ccccc2)n1)c1ccccc1Br"
Ans: 13.1 µM (active)

Q: What value of Potency has been recorded for this entry: "Cc1ccc(Nc2nc(N)nc(CSc3nnc(C)s3)n2)cc1"
Ans: 7.36 µM (active)

Q: What value of Potency has been recorded for this entry: "CC1CCN(C(=O)CSc2nc3ccccc3[nH]2)CC1"
Ans: 2.93 µM (active)

Q: What value of Potency has been recorded for this entry: "COc1ccc(OCc2cc(C(=O)N3CCOCC3)no2)c(Cl)c1"
Ans: 2.07 µM (active)

Q: What value of Potency has been recorded for this entry: "CCOc1ccccc1-c1nc(-c2ccc(C)nc2OC)no1"
Ans: 3.69 µM (active)

Q: What value of Potency has been recorded for this entry: CCOC(=O)c1ccc(NC(=O)C(CC)Sc2nc3ncccc3o2)cc1 (stereo not given)
Ans: 4.65 µM (active)

Q: What value of Potency has been recorded for this entry: O=C(Nc1ncc(Cc2cccc(Cl)c2Cl)s1)C1CCCO1 (stereo not given)
Ans: 7.36 µM (active)

Q: What value of Potency has been recorded for this entry: "Cc1ccnc(NC(=O)c2cc3ccccc3oc2=O)c1"
Ans: 0.414 µM (active)

Q: What value of Potency has been recorded for this entry: "COc1ccccc1CCC(=O)Nc1ccc(C)cc1Cl"
Ans: 16.5 µM (active)

Q: What value of Potency has been recorded for this entry: "Cc1cc(C)n2nc(SCCOc3ccccc3)nc2n1"
Ans: 7.36 µM (active)

Q: What value of Potency has been recorded for this entry: "CCCCSc1nc2ccccc2[nH]1"
Ans: 13.1 µM (active)

Q: What value of Potency has been recorded for this entry: "CCn1c(=NC(=O)c2ccc3c(c2)OCCO3)sc2c(C)ccc(OC)c21"
Ans: 1.31 µM (active)

Q: What value of Potency has been recorded for this entry: "Cc1cc2ncn(C(=O)N3CCC(C)CC3)c2cc1C"
Ans: 10.4 µM (active)

Q: What value of Potency has been recorded for this entry: "COc1ccccc1-c1nc(-c2ccc(C)nc2OC)no1"
Ans: 3.29 µM (active)

Q: What value of Potency has been recorded for this entry: "Cc1cccc(-n2cnc(C(=O)NC3CCCCCC3)c2)n1"
Ans: 3.69 µM (active)

====

# Method Description: qHTS Assay for Modulators of miRNAs and/or Inhibitors of miR-21; further: potency means the concentration at half of the fitted maximal effect; nearly all actives have a fitted effect of over 55% in size
# Run Conditions: HeLa miR-21-FLuc reporter, luciferase luminescence, 48 h; actives lower the signal
Out of some 340,000 compounds screened, about 3,300 (0.97%) were called active. Roughly 9% stayed inconclusive and do not appear here. The list shows a part of the results.
Assignment: determine reported Potency for the given compounds.

Q: What value of Potency has been recorded for this entry: "c1csc(-c2nc3ccccc3s2)c1"
Ans: 5.85 µM (active)

Q: What value of Potency has been recorded for this entry: "Cc1cccc(C)c1NC(=O)c1c[nH]c2ccccc12"
Ans: 3.69 µM (active)

Q: What value of Potency has been recorded for this entry: "NC(=O)c1cnn(-c2cc(Oc3ccccc3)ncn2)c1N"
Ans: 2.07 µM (active)

Q: What value of Potency has been recorded for this entry: "COc1cccc(C(=O)Nc2cc3c(cc2Cl)OCCCO3)c1"
Ans: 0.826 µM (active)

Q: What value of Potency has been recorded for this entry: "Cc1ccoc1C(=O)Nc1cccc(Oc2ccccc2)c1"
Ans: 3.29 µM (active)

Q: What value of Potency has been recorded for this entry: "O=[N+]([O-])c1ccccc1OCCCn1cnc2ccccc21"
Ans: 2.93 µM (active)

Q: What value of Potency has been recorded for this entry: "CCOC(=O)c1ccc2ncc(-c3ccccc3)nc2c1"
Ans: 1.85 µM (active)

Q: What value of Potency has been recorded for this entry: "Brc1ccccc1OCCCn1cnc2ccccc21"
Ans: 1.85 µM (active)

Q: What value of Potency has been recorded for this entry: "N#Cc1ccccc1OCC(=O)Nc1ccc2c(c1)OCCCO2"
Ans: 2.61 µM (active)

Q: What value of Potency has been recorded for this entry: "O=c1c2ccccc2nc2sc3ccccc3n12"
Ans: 6.56 µM (active)

Q: What value of Potency has been recorded for this entry: CCOC(=O)c1c(C)oc2c1c(C(c1ccccc1)N1CCOCC1)c(O)c1ccccc12 (centres undefined)
Ans: 3.69 µM (active)

Q: What value of Potency has been recorded for this entry: "O=C(c1cc(-c2ccc(Cl)cc2)on1)N1CCCC1"
Ans: 0.521 µM (active)

Q: What value of Potency has been recorded for this entry: "Cc1ccc(NC(=O)c2ccoc2C)cc1C"
Ans: 4.14 µM (active)

Q: What value of Potency has been recorded for this entry: "Cc1ccc(/C=N/NC(=O)CSc2nc3ccccc3o2)cc1"
Ans: 11.7 µM (active)

Q: What value of Potency has been recorded for this entry: "O=C(O)c1cccc(N/N=C/c2ccc(-c3ccccc3)cc2)c1"
Ans: 0.147 µM (active)

Q: What value of Potency has been recorded for this entry: "COc1cc(/C=C/c2ccc(O)cc2)cc(OC)c1"
Ans: 2.93 µM (active)

Q: What value of Potency has been recorded for this entry: "Cc1ccsc1C(=O)OCC(=O)NCCC1=CCCCC1"
Ans: 18.5 µM (active)

Q: What value of Potency has been recorded for this entry: "COc1ccc(C(=O)N2CCc3ccccc32)cc1"
Ans: 18.5 µM (active)

Q: What value of Potency has been recorded for this entry: "CS(=O)(=O)c1cnc2c(-c3ccsc3)cnn2c1N"
Ans: 5.21 µM (active)

Q: What value of Potency has been recorded for this entry: "CCc1ccc(C(=O)N/N=C/c2cccc3ccccc23)nc1"
Ans: 8.26 µM (active)

Q: What value of Potency has been recorded for this entry: "O=C(Nc1cc2c(cc1Br)OCCCO2)c1ccccc1"
Ans: 2.33 µM (active)

Q: What value of Potency has been recorded for this entry: "CCn1c(SCc2ccccc2Cl)nc2ccccc21"
Ans: 13.1 µM (active)

Q: What value of Potency has been recorded for this entry: "Oc1ccccc1N1CCN(c2ccc3ccccc3n2)CC1"
Ans: 0.826 µM (active)

Q: What value of Potency has been recorded for this entry: "Cc1nc2ccc(NC(=O)c3ccccc3)cc2s1"
Ans: 5.85 µM (active)

Origin of values: PubChem BioAssay AID2289
